- Test system: Pseudomonas aeruginosa
- assay procedure: Antibacterial activity against Pseudomonas aeruginosa ATCC 27853
- Type: functional, organism-based
Active and inactive are the calls of the source. The calls are words filed in the database; no cut-off is given here.

molecule | Activity
CCC/C=C/C=C/c1c(O)cc(CC=C(C)C)c(O)c1C=O [DIHYDROAUROGLAUCIN] | inactive
CCCCCCCc1c(O)cc(CC=C(C)C)c(O)c1C=O | inactive
CCCCC/C=C/c1c(O)cc(CC=C(C)C)c(O)c1C=O [TETRAHYDROAUROGLAUCIN] | inactive

* * *

- Tested on: Nakaseomyces glabratus
- assay procedure: Antifungal activity against Candida glabrata ATCC 90030
- Format: functional, organism-based
In this section we review reported log10 of IC50 values for a set of compounds.
parameter: log10 of IC50 (log10 of the value in µg/mL)

compound | log10 of IC50
CCCCC/C=C/c1c(O)cc(CC=C(C)C)c(O)c1C=O [TETRAHYDROAUROGLAUCIN] | 0.79
CCCCC/C=C/c1c(O)cc(CC=C(C)C)c(O)c1CO | 0.86
CCC/C=C/c1cc2c(C=O)c(O)c(CC=C(C)C)cc2o1 | 0.05
CCC/C=C/C=C/c1c(O)cc(CC=C(C)C)c(O)c1C=O [DIHYDROAUROGLAUCIN] | 0.38
C/C=C/C=C/C=C/c1c(O)cc(CC=C(C)C)c(O)c1C=O [AUROGLAUCIN] | 0.87
C[C@@H]1[C@H](O)[C@@H](C)/C=C/C=C/C=C/C=C/C=C/C=C/C=C/[C@H](O[C@@H]2O[C@H](C)[C@@H](O)[C@H](N)[C@@H]2O)C[C@@H]2O[C@](O)(C[C@@H](O)C[C@@H](O)[C@H](O)CC[C@@H](O)C[C@@H](O)CC(=O)O[C@H]1C)C[C@H](O)[C@H]2C(=O)O [AMPHOTERICIN B] | -0.49
